As shown below, each of these compounds has a reported pest or weed control at 125 g/ha value.
- Tested on: Setaria faberi (SETFA)
- test.name: Example A post-emergence herbicidal activity, glasshouse pot test
- Type: in vivo
- settings: Rate 125 g/ha, evaluated 14 or 15 days later, read-out: Post-Emergence Activity SETFA (100=total damage to plant; 0=no damage to plant)

compound | target.or.test.system | unit.string | pest or weed control at 125 g/ha
Cc1sc(-c2ccc(Cl)cc2)nc1C1C(=O)[C@@H]2[C@H](C1=O)[C@H]1CC[C@@H]2O1 (some centres unmarked) | Setaria faberi (SETFA) | % | 60
CCc1sc(-c2ccc(Cl)cc2)nc1C1C(=O)[C@H]2[C@@H]3CC[C@@](C)(O3)[C@H]2C1=O (mixture of isomers) | Setaria faberi (SETFA) | % | 90
Cc1sc(-c2ccc(Cl)cc2)nc1C1C(=O)[C@H]2[C@@H]3CC[C@@](C)(O3)[C@H]2C1=O (mixture of isomers) | Setaria faberi (SETFA) | % | 80
Cc1sc(-c2ccc(Cl)cc2)cc1C1=C(OC(=O)C(C)C)[C@@H]2[C@H](C1=O)[C@H]1CC[C@@H]2O1 (racemic) [Compound P2] | Setaria faberi (SETFA) | % | 80
COc1ccc(-c2nc(C3C(=O)[C@@H]4[C@H](C3=O)[C@H]3CC[C@@H]4O3)c(C)s2)cc1 (some centres unmarked) | Setaria faberi (SETFA) | % | 80

---

- Tested on: Digitaria sanguinalis (DIGSA)
- test.name: Example A pre-emergence herbicidal activity, glasshouse pot test
- Format: in vivo
- settings: Rate 250 g/ha, evaluated 19 or 20 days later, read-out: Pre-Emergence Activity DIGSA (100=total damage to plant; 0=no damage to plant)

compound | target.or.test.system | unit.string | pest or weed control at 250 g/ha
CCc1sc(-c2ccc(Cl)cc2)nc1C1C(=O)[C@H]2[C@@H]3CC[C@@](C)(O3)[C@H]2C1=O (mixture of isomers) | Digitaria sanguinalis (DIGSA) | % | 100
Cc1sc(-c2ccc(Cl)cc2)cc1C1=C(OC(=O)C(C)(C)C)[C@@H]2[C@H](C1=O)[C@H]1CC[C@@H]2O1 (racemic) [Compound P1] | Digitaria sanguinalis (DIGSA) | % | 0
Cc1sc(-c2ccc(Cl)cc2)cc1C1=C(OC(=O)C(C)C)[C@@H]2[C@H](C1=O)[C@H]1CC[C@@H]2O1 (racemic) [Compound P2] | Digitaria sanguinalis (DIGSA) | % | 0

Every entry's value here was drawn from patent US8530667B2.
